Origin of the recorded values: patent US9868766B2

For each of the compounds below, state its EC50.
Target: UniProtKB P30559
Sequence (P30559 1-389): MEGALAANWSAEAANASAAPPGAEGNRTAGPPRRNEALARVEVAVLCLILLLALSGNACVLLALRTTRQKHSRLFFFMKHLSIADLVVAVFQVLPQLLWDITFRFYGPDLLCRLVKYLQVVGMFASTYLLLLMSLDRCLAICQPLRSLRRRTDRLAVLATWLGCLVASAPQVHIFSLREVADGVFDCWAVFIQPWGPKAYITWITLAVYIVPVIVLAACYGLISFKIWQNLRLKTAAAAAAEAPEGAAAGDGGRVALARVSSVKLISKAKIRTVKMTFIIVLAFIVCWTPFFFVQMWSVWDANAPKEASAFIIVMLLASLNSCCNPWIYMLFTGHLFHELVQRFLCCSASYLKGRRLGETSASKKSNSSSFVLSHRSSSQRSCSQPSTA
Experiment: Calcium flux assay (FLIPR), agonist mode, CHO cells expressing human OTR
Conditions: CHO cells stably expressing human OTR; calcium flux; read-out: hOT EC50
Positions of bridges follow the written chain, without caps; N, C: chain ends. Non-standard residues stand in square brackets, D forms with d. Residues, ends and D or L forms follow the SMILES beside them. d(aIle) = CC[C@H](C)[C@@H](N)C(=O)O; αMeL = CC(C)C[C@](C)(N)C(=O)O; Chg = N[C@H](C(=O)O)C1CCCCC1; Sar = CNCC(=O)O
Numbers only, in nM.

As a guide, the following entries are already answered.
**Query** I am curious: what EC50 value has been reported for CC[C@H](C)[C@@H]1NC(=O)[C@H](Cc2ccc(O)cc2)NC(=O)CNC(=O)CC[C@@H](C(=O)N(C)CC(=O)N[C@@H](CCC(=O)O)C(=O)NCC(N)=O)NC(=O)[C@H](CC(N)=O)NC(=O)[C@H](CCC(N)=O)NC1=O [Example 29] (GYIQNE[Sar]EG-NH2; lactam N-6) ?
**Result** 32

**Query** I am curious: what EC50 value has been reported for CC[C@H](C)[C@@H]1NC(=O)[C@H](Cc2ccc(O)cc2)NC(=O)CNC(=O)CC[C@@H](C(=O)N2CCC[C@H]2C(=O)N[C@@](C)(CC(C)C)C(=O)NCC(N)=O)NC(=O)[C@H](CC(N)=O)NC(=O)[C@H](CCC(N)=O)NC1=O [Example 36] (GYIQNEP[αMeL]G-NH2; lactam N-6) ?
**Result** 41

**Query** I am curious: what EC50 value has been reported for CC[C@H](C)[C@@H]1NC(=O)[C@H](Cc2ccc(O)cc2)NC(=O)CNC(=O)CC[C@@H](C(=O)N(C)CC(=O)N[C@@H](Cc2c[nH]c3ccccc23)C(=O)NCC(N)=O)NC(=O)[C@H](CC(N)=O)NC(=O)[C@H](CCC(N)=O)NC1=O [Example 38] (GYIQNE[Sar]WG-NH2; lactam N-6) ?
**Result** 1

Below is a list of compounds. For each, state its recorded EC50.
1. CC[C@H](C)[C@@H]1NC(=O)[C@H](Cc2ccc(O)cc2)NC(=O)CNC(=O)CC[C@@H](C(=O)N(C)CC(=O)N[C@H](C(=O)NCC(N)=O)C2CCCCC2)NC(=O)[C@H](CC(N)=O)NC(=O)[C@H](CCC(N)=O)NC1=O [Example 41] (GYIQNE[Sar][Chg]G-NH2; lactam N-6)
2. CC[C@H](C)[C@@H]1NC(=O)[C@H](Cc2ccc(O)cc2)NC(=O)CNC(=O)CC[C@@H](C(=O)N(C)CC(=O)N[C@@H](CC(C)C)C(=O)NCC(N)=O)NC(=O)[C@H](CC(N)=O)NC(=O)[C@H](C)NC1=O [Example 37] (GYIANE[Sar]LG-NH2; lactam N-6)
3. CC[C@H](C)[C@H]1NC(=O)[C@H](Cc2ccc(O)cc2)NC(=O)CNC(=O)CC[C@@H](C(=O)N2CCC[C@H]2C(=O)N[C@@H](CC(C)C)C(=O)NCC(N)=O)NC(=O)[C@H](CC(N)=O)NC(=O)[C@H](CCC(N)=O)NC1=O [Example 22] (GY[d(aIle)]QNEPLG-NH2; lactam N-6)

**Result**
69
4
98
